Target: 5-HT transporter (Rattus norvegicus, UniProt P31652)
Construct: from tissue; host or cells: rat brain synaptosomes (P2 fraction) from medulla and pons
Sequence (P31652 whole entry): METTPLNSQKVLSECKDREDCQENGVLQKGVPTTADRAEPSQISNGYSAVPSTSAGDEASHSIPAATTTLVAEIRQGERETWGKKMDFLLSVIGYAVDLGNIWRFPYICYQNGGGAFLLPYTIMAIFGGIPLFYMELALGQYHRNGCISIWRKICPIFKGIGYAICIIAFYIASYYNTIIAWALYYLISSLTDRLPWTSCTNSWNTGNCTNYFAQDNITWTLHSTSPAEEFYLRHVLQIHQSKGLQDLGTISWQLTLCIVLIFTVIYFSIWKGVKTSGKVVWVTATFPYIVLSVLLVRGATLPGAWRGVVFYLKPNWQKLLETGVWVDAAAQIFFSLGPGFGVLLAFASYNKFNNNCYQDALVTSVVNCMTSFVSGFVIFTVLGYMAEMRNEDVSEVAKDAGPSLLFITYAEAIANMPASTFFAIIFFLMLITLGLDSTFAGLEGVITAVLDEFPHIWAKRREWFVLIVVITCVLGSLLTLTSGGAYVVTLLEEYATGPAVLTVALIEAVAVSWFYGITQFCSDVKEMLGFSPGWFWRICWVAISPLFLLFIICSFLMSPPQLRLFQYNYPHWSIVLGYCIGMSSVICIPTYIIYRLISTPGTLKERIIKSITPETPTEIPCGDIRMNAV
Assay: 5-HT uptake inhibition in rat brain synaptosomes (medulla and pons), [3H]-5-HT
Format: biochemical
Lab note: compare inhibition at 10 µM against 60%. Equal or greater, write rule met. Smaller, write rule not met.

Ask | Would you say CCOC(=O)c1cccc(NC(=O)N2CCC3(CC2)CN(Cc2ccccc2C(F)(F)F)C(=O)O3)c1 [Example 59] shows inhibition at 10 µM at minimum 60%?
Reply | rule not met

Ask | Quick check: does Cc1cc(C)cc(CN2CC3(CCN(C(=O)c4ccc(Br)cc4)CC3)OC2=O)c1 [Example 124] have inhibition at 10 µM greater than or equal to 60%?
Reply | rule met

Ask | Identify whether the reported inhibition at 10 µM of the following compound is 60% or greater: COc1ccc(NC(=O)N2CCC3(CC2)CN(Cc2ccccc2)C(=O)O3)cc1 [Example 39]
Reply | rule not met

Ask | Identify whether the reported inhibition at 10 µM of the following compound is 60% or greater: N#Cc1cccc(NC(=O)N2CCC3(CC2)CN(Cc2ccc(SC(F)(F)F)cc2)C(=O)O3)c1 [Example 38]
Reply | rule not met

Ask | Hi, just wondering whether Cc1cc(C)cc(CN2CC3(CCN(C(=O)c4cc(C)on4)CC3)OC2=O)c1 [Example 122] shows inhibition at 10 µM of 60% or higher.
Reply | rule met

Ask | I'd appreciate it if you could say whether O=C1OC2(CCN(C(=S)NCc3ccccc3)CC2)CN1Cc1ccc(F)c(F)c1 [Example 11] has inhibition at 10 µM at least equal to 60%.
Reply | rule not met

Ask | State whether the measured inhibition at 10 µM reaches 60%, counting equality as reaching it, for N#Cc1ccccc1CN1CC2(CCN(Cc3csc4ccc(Cl)cc34)CC2)OC1=O [Example 84]
Reply | rule met

Ask | Determine whether measured inhibition at 10 µM meets or exceeds 60% for O=C(CN1CCC2(CC1)CN(Cc1ccccc1F)C(=O)O2)Nc1nc(-c2ccccc2)cs1 [Example 86]
Reply | rule not met

Ask | Test whether the compound N#Cc1cccc(CN2CC3(CCN(C(=S)Nc4cc(Cl)cc(Cl)c4)CC3)OC2=O)c1 [Example 14] records inhibition at 10 µM of 60% or higher.
Reply | rule not met

Ask | Test whether the compound O=C(NCCc1ccccc1)N1CCC2(CC1)CN(Cc1ccccc1-c1ccccc1)C(=O)O2 [Example 57] records inhibition at 10 µM of 60% or higher.
Reply | rule not met

Ask | Does the compound COc1cccc(CC(=O)N2CCC3(CC2)CN(Cc2cc(C)cc(C)c2)C(=O)O3)c1 [Example 113] have recorded inhibition at 10 µM that is 60% or more?
Reply | rule met

Ask | Decide: inhibition at 10 µM of O=C1OC2(CCN(C(=O)c3c(Cl)cccc3Cl)CC2)CN1Cc1ccccc1F [Example 139] >= 60%?
Reply | rule met

Ask | Hi team, for N#Cc1cccc(CN2CC3(CCN(C(=S)Nc4cccc(C(F)(F)F)c4)CC3)OC2=O)c1 [Example 15] , is the recorded inhibition at 10 µM at or above 60%?
Reply | rule not met

Ask | Given the entry N#Cc1ccccc1CN1CC2(CCN(C(=O)Nc3cc(F)ccc3F)CC2)OC1=O [Example 32] , answer whether its inhibition at 10 µM meets or surpasses 60%.
Reply | rule not met

Ask | Determine whether measured inhibition at 10 µM meets or exceeds 60% for CC(NC(=O)N1CCC2(CC1)CN(Cc1ccccc1)C(=O)O2)c1ccccc1 (centres unmarked) [Example 43]
Reply | rule not met

Ask | Is reported inhibition at 10 µM greater than or equal to 60% here: Cc1cc(C)cc(CN2CC3(CCN(C(=O)c4ccc(F)c(Cl)c4)CC3)OC2=O)c1 [Example 131]
Reply | rule met

Ask | Quick check: does Cc1cc(C)cc(CN2CC3(CCN(C(=O)c4c(-c5ccccc5Cl)noc4C)CC3)OC2=O)c1 [Example 101] have inhibition at 10 µM greater than or equal to 60%?
Reply | rule met
